# experimentalTarget: SIRT1 (Homo sapiens, UniProt Q96EB6)
# Sequence (Q96EB6 whole entry): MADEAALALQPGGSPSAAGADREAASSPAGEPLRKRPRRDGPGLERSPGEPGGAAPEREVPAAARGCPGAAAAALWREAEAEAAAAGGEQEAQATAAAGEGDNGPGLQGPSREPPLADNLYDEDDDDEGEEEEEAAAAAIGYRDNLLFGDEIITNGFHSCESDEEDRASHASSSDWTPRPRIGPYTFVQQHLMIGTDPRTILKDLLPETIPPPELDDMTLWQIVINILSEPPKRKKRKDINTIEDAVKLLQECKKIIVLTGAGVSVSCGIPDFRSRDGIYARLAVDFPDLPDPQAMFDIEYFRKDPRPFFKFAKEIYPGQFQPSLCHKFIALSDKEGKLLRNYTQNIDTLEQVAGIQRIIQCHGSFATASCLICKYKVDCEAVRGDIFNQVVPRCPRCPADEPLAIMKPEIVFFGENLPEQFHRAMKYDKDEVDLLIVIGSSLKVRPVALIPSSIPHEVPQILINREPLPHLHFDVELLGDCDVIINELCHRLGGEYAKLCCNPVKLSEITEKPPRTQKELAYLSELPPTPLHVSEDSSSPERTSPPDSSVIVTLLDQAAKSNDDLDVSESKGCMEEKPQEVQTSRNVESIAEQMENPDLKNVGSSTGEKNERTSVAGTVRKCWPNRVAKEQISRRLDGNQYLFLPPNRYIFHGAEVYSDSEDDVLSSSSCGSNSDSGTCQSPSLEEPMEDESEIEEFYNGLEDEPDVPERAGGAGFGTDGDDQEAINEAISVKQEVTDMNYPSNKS
# protocolNotes: Mass spectrometry based SIRT1 deacetylation assay (activation)
# Assay type: biochemical
# measurementConditions: 10 nM SIRT1, 0.5 μM peptide substrate, 120 μM βNAD+, 25 min at 25° C.
readoutName: EC1.5 (concentration of test compound that results in 150% activation of SIRT1)

{"columns": ["molecule", "result"],
 "data": [
  ["Cc1cc(NC(=O)c2cccc3ccc(-c4cccc(C(F)(F)F)c4)nc23)n(C)n1 [Compound 51]", "B (EC1.5 1-25 uM)"],
  ["O=C(Nc1nccs1)c1cccc2cnc(-c3cccc(N4CCOCC4)c3)nc12 [Compound 299]", "B (EC1.5 1-25 uM)"],
  ["O=C(Nc1nccs1)c1cccc2cc(C(F)(F)F)c(-c3ccccc3)nc12 [Compound 192]", "C (EC1.5>25 uM)"],
  ["O=C(Nc1ccncn1)c1cccc2ccc(-c3cccnc3)nc12 [Compound 208]", "C (EC1.5>25 uM)"],
  ["Cc1ccc(-c2ccc3cccc(NC(=O)c4cscn4)c3n2)cc1 [Compound 212]", "B (EC1.5 1-25 uM)"]
]}

Query :: EC1.5 (concentration of test compound that results in 150% activation of SIRT1) for O=C(Nc1cccnc1)c1cc(F)cc2ccc(-c3cccc(C(F)(F)F)c3)nc12 [Compound 63] ?
Result :: C (EC1.5>25 uM)

Query :: Same question for O=S(=O)(Nc1cccc2ccc(-c3cccc(OC(F)(F)F)c3)nc12)N1CCNCC1 [Compound 115] please.
Result :: B (EC1.5 1-25 uM)

Query :: Same question for O=C(Nc1cccc2ccc(-c3cccc(C(F)(F)F)c3)nc12)c1csc(-c2ccccc2)n1 [Compound 206] please.
Result :: C (EC1.5>25 uM)
